Recorded IC50, one value per entry.
# studyTarget: Glutaminase kidney isoform, mitochondrial (Mus musculus, UniProt D3Z7P3)
# Sequence (D3Z7P3 whole entry): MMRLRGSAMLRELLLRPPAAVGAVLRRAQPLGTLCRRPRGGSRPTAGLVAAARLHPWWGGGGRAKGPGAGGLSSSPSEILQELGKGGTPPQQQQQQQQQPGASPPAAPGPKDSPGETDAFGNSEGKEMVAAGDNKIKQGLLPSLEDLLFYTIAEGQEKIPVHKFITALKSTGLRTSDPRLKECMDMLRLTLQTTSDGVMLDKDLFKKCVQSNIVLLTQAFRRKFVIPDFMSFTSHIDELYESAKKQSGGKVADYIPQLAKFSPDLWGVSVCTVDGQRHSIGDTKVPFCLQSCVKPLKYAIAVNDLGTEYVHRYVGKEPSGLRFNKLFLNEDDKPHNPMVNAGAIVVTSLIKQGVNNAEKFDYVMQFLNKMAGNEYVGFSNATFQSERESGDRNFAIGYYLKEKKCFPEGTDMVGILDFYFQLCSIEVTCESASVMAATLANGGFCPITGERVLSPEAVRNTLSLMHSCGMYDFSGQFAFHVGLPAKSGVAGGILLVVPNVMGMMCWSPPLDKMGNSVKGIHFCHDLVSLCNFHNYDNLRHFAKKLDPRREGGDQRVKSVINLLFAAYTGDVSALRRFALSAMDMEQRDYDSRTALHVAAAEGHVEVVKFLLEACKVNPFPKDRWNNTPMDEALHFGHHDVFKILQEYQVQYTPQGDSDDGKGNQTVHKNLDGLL
# testName: Inhibition of mouse kidney glutaminase assessed as ammonia formation at 0.1 uM using glutamine as substrate by Nessler's reagent based assay relative to control
outcomeMeasure: IC50

                                   compound                               studytarget  outcomemeasure          result
0  O=C(Cc1cccc(OC(F)(F)F)c1)Nc1ccc(N2CCC(c3nnc(NC(=O)Cc4ccccn4)s3)CC2)nn1  Glutaminase kidney isoform, mitochondrial (Mus musculus, UniProt D3Z7P3)            IC50       < 0.05 µM
1  O=C(Cc1cccc(OC(F)(F)F)c1)Nc1ccc(N2CCCC(c3nnc(NC(=O)Cc4ccccn4)s3)C2)nn1 (stereo not given)  Glutaminase kidney isoform, mitochondrial (Mus musculus, UniProt D3Z7P3)            IC50  0.05 to 0.2 µM
2  O=C(Cc1ccccn1)Nc1ccc(N2CCC(c3nnc(NC(=O)Cc4cccc(OC(F)(F)F)c4)s3)CC2)nn1  Glutaminase kidney isoform, mitochondrial (Mus musculus, UniProt D3Z7P3)            IC50       < 0.05 µM
3  O=C(Cc1cccc(OC(F)(F)F)c1)Nc1ccc(N2CCC(c3nnc(NC(=O)Cc4ccccn4)s3)CC2)cn1  Glutaminase kidney isoform, mitochondrial (Mus musculus, UniProt D3Z7P3)            IC50       1 to 2 µM
4  O=C(Cc1cccc(OC(F)(F)F)c1)Nc1ccc(CC2CC(c3nnc(NC(=O)Cc4ccccn4)s3)C2)nn1 (stereo not given)  Glutaminase kidney isoform, mitochondrial (Mus musculus, UniProt D3Z7P3)            IC50      < 0.025 µM

The values you see were collected from ChEMBL document CHEMBL4308839.
